molecular target: MAGL (Mus musculus (Mouse), UniProt O35678); test: In vitro competitive activity-based protein profiling, MAGL (mouse); format: biochemical; details: 1 μM, read-out: MAGL % inh. 1 μM (mouse)
Sequence (O35678 whole entry): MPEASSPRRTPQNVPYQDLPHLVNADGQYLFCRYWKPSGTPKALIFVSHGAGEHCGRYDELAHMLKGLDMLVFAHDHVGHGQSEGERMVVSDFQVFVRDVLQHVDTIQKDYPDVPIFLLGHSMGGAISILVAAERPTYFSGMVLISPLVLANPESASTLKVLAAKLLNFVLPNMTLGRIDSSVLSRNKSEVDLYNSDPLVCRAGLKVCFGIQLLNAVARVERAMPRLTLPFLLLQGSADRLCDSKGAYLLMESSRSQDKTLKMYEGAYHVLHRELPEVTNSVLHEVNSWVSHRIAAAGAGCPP
experimental.readout: inhibition at 1 µM

Recorded inhibition at 1 µM, per entry:
CC(=O)N(C)c1cnn(C(=O)N2CC3CN(Cc4cccc(Oc5ccccn5)c4)CC3C2)c1 (stereo not drawn); ≥ 75%
CC(=O)N(C)c1cnn(C(=O)N2CC3(CCN(Cc4ccc(Cl)c(Cl)c4)CC3)C2)c1; 25 to 50%
CC(=O)N(C)c1cnn(C(=O)N2CCC3(CC2)CN(Cc2cccc(C)c2)C3)c1; ≥ 75%
C#Cc1ccc(CN2CCN(C(=O)n3cc(N(C)C(C)=O)cn3)CC2)cc1; ≥ 75%
CC(=O)N(C)c1cnn(C(=O)N2CCC3(CCN(Cc4ccc(N5CCOCC5)cc4C)C3)C2)c1 (stereo not drawn); 0 to 25%

**Query** # lookup: inhibition at 1 µM of CC(=O)N(C)c1cnn(C(=O)N2CCC3(CCN(Cc4cccc(F)c4)C3)C2)c1 (stereo not drawn)
**Result** 0 to 25%

**Query** Also, CC(=O)N(C)c1cnn(C(=O)N2CCN(Cc3ccc(-c4ccccc4)cc3C)CC2)c1 please.
**Result** ≥ 75%

**Query** Also, CC(=O)N(C)c1cnn(C(=O)N2CCN(Cc3ccccc3C)CC2)c1 please.
**Result** ≥ 75%

**Query** Also, CC(=O)N(C)c1cnn(C(=O)N2C[C@H]3C[C@H](N(C)Cc4cc(C(F)(F)F)ccc4C(F)(F)F)C[C@H]3C2)c1 please.
**Result** ≥ 75%

**Query** Also, CC(=O)N(C)c1cnn(C(=O)N2C[C@H]3C[C@@H](N(C)Cc4cc(Cl)ccc4C(F)(F)F)C[C@H]3C2)c1 please.
**Result** ≥ 75%

**Query** Also, CS(=O)(=O)Nc1cnn(C(=O)N2CCN(Cc3ccc(N4CCCC4)cc3C(F)(F)F)CC2)c1 please.
**Result** 25 to 50%

----------
molecular target: FAAH (Mus musculus (Mouse), UniProt O08914); experiment: In vitro competitive activity-based protein profiling, FAAH (mouse); type: biochemical; settings: 1 μM, read-out: FAAH % inh. 1 μM (mouse)
Sequence (O08914 whole entry): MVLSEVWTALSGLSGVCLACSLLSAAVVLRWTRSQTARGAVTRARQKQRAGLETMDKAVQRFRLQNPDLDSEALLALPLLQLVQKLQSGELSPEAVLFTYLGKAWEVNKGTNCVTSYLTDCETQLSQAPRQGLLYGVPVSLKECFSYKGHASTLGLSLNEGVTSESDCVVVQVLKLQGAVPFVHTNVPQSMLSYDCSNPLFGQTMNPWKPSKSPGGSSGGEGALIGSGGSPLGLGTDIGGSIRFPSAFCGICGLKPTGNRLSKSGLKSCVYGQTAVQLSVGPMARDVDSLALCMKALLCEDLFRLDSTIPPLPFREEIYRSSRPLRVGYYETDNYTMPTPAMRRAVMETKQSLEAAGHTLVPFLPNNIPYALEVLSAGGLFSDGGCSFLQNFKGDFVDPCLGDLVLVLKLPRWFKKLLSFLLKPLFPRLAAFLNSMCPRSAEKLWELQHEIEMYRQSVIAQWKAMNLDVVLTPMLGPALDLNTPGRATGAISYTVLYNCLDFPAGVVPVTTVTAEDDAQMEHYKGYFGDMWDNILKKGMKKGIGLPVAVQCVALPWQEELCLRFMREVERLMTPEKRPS
experimental.readout: inhibition at 1 µM

CC(=O)N(C)c1cnn(C(=O)N2C[C@H]3C[C@@H](N(C)Cc4cc(Cl)ccc4Cl)C[C@H]3C2)c1 [Example 162]; ≥ 75%
COc1cccc(CN2CC3CN(C(=O)n4cc(N(C)C(C)=O)cn4)CC3C2)c1 (stereo not shown) [Example 181]; ≥ 75%
CC(=O)N(C)c1cnn(C(=O)N2C[C@H]3C[C@@H](N(Cc4ccccc4Cl)C(C)=O)C[C@H]3C2)c1 [Example 169]; 25 to 50%

**Query** # lookup: inhibition at 1 µM of CC(=O)N(C)c1cnn(C(=O)N2CCC3(CCN(Cc4cc(Cl)ccc4Cl)C3)C2)c1 (racemic) [Example 175]
**Result** ≥ 75%

----------
target: UniProtKB Q99685; assay: In vitro competitive activity-based protein profiling, MAGL (human); type: biochemical; details: 1 μM, human proteome; read-out: MAGL % inh. 1 μM (human)
Sequence (Q99685 whole entry): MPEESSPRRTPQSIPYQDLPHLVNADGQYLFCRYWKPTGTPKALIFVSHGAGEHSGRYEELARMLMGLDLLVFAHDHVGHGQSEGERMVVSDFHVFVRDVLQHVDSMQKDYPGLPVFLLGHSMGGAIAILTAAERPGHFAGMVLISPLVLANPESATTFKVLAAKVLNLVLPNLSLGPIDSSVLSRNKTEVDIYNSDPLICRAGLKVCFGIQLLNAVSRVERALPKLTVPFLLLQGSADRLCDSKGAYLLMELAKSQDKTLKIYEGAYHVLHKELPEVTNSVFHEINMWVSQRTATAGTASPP
Quick reference: inhibition at 1 µM of the listed items.

Recorded inhibition at 1 µM, per entry:
CS(=O)(=O)Nc1cnn(C(=O)N2CCN(Cc3ccc(-c4cccnn4)cc3C(F)(F)F)CC2)c1 [Example 311]; ≥ 75%
Cc1nccn1-c1ccc(CN2CCN(C(=O)n3cc(NS(C)(=O)=O)cn3)CC2)c(C(F)(F)F)c1 [Example 308]; ≥ 75%
CS(=O)(=O)Nc1cnn(C(=O)N2CCC3(CCN(Cc4ccc(N5CCCC5)cc4C(F)(F)F)C3)C2)c1 (stereo not shown) [Example 285]; ≥ 75%

Now consider a different molecule.
**Query** # lookup: inhibition at 1 µM of CS(=O)(=O)Nc1cnn(C(=O)N2CCN(Cc3ccc(-c4nc5ccccc5o4)cc3C(F)(F)F)CC2)c1 [Example 304]
**Result** 25 to 50%

----------
biological target: MAGL (Mus musculus (Mouse)); assay: Mouse brain proteomes from inhibitor treated mice (oral gavage, 4 h), MAGL; format: in vivo; details: read-out: MAGL % inh. 5 mg/kg (mouse)
Quick reference: inhibition at 5 mg/kg of the listed items.

CC(=O)N(C)c1cnn(C(=O)N2CC3CN(Cc4ccc(Cl)cc4)CC3C2)c1 (stereo not drawn); ≥ 75%
CC(=O)N(C)c1cnn(C(=O)N2CCC3(CCN(Cc4ccccc4C(F)(F)F)C3)C2)c1 (stereo not drawn); ≥ 75%
CC(=O)N(C)c1cnn(C(=O)N2CCC3(CCN(Cc4cccc(Oc5ccccc5)c4)C3)C2)c1 (stereo not drawn); 25 to 50%

**Query** # lookup: inhibition at 5 mg/kg of CC(=O)Nc1cnn(C(=O)N2CCC3(CCN(Cc4cc(Cl)cc(C(F)(F)F)c4)C3)CC2)c1
**Result** ≥ 75%

**Query** Also, CC(=O)Nc1cnn(C(=O)N2CCN(Cc3ccc(C(F)(F)F)cc3N3CCCC3)CC2)c1 please.
**Result** ≥ 75%

**Query** Also, Cc1cc(-c2ccccc2)ccc1CN1CCN(C(=O)n2cc(NS(C)(=O)=O)cn2)CC1 please.
**Result** ≥ 75%

----------
target: MAGL (Mus musculus (Mouse)); experiment: In vitro competitive activity-based protein profiling, MAGL (mouse); format: biochemical; details: 1 μM, read-out: MAGL % inh. 1 μM (mouse)
Quick reference: inhibition at 1 µM of the listed items.

CC(=O)N(C)c1cnn(C(=O)N2CCN(Cc3ccc(N4CCOCC4)cc3Cl)CC2)c1; ≥ 75%
CS(=O)(=O)Nc1cnn(C(=O)N2CCN(Cc3ccc(-c4ccccc4)cc3OCc3ccccc3)CC2)c1; ≥ 75%
CC(=O)N(C)c1cnn(C(=O)N2C[C@H]3C[C@@H](N(C)Cc4ccc(N5C6CCC5COC6)c(C(F)(F)F)c4)C[C@H]3C2)c1; ≥ 75%
CC(=O)N(C)c1cnn(C(=O)N2CC3CN(Cc4cccc(N5CCCC5)c4)CC3C2)c1 (stereo not drawn); ≥ 75%
CC(=O)N(C)c1cnn(C(=O)N2C[C@H]3C[C@@H](N(C)Cc4ccc(Cl)cc4)C[C@H]3C2)c1; ≥ 75%

**Query** # lookup: inhibition at 1 µM of CS(=O)(=O)Nc1cnn(C(=O)N2CCC3(CCN(Cc4ccc(-c5nccs5)cc4Cl)C3)C2)c1 (stereo not drawn)
**Result** 50 to 75%

**Query** Also, CC(=O)N(C)c1cnn(C(=O)N2CCC3(CCN(Cc4cccc(N5CCOCC5)c4)C3)C2)c1 (stereo not drawn) please.
**Result** 0 to 25%

**Query** Also, CS(=O)(=O)Nc1cnn(C(=O)N2CC3CN(Cc4ccc(N5CCCC5)cc4C(F)(F)F)CC3C2)c1 (stereo not drawn) please.
**Result** ≥ 75%

**Query** Also, CC(=O)N(C)c1cnn(C(=O)N2CC3CN(Cc4ccc(C(F)(F)F)c(N5CCOCC5)c4)CC3C2)c1 (stereo not drawn) please.
**Result** ≥ 75%

**Query** Also, CC(=O)N(C)c1cnn(C(=O)N2CC3CN(Cc4cc(Cl)cc(N5CCOCC5)c4)CC3C2)c1 (stereo not drawn) please.
**Result** ≥ 75%

**Query** Also, CC(=O)N(C)c1cnn(C(=O)N2CC3CN(Cc4ccccc4C)CC3C2)c1 (stereo not drawn) please.
**Result** ≥ 75%

**Query** Also, CC(=O)N(C)c1cnn(C(=O)N2CCC3(CC2)CN(Cc2ccc(Cl)c(Cl)c2)C3)c1 please.
**Result** ≥ 75%

**Query** Also, CC(=O)N(C)c1cnn(C(=O)N2C[C@H]3C[C@@H](NCc4ccccc4Cl)C[C@H]3C2)c1 please.
**Result** 25 to 50%

**Query** Also, CC(=O)N(C)c1cnn(C(=O)N2C[C@H]3C[C@H](NCc4cccc(Cl)c4)C[C@H]3C2)c1 please.
**Result** ≥ 75%

**Query** Also, CS(=O)(=O)Nc1cnn(C(=O)N2CCN(Cc3ccc(-c4ccncn4)cc3C(F)(F)F)CC2)c1 please.
**Result** 25 to 50%

----------
target: FAAH (Mus musculus (Mouse), UniProt O08914); assay: In vitro competitive activity-based protein profiling, FAAH (mouse); assay type: biochemical; settings: 1 μM, read-out: FAAH % inh. 1 μM (mouse)
experimental.readout: inhibition at 1 µM

CC(=O)N(C)c1cnn(C(=O)N2CCC3(CCN(Cc4cccc(Oc5ccccc5)c4)C3)C2)c1 (stereo not shown) [Example 236]; ≥ 75%
CC(=O)N(C)c1cnn(C(=O)N2C[C@H]3C[C@@H](N(C)Cc4ccc(Cl)cc4)C[C@H]3C2)c1 [Example 143]; ≥ 75%
CC(=O)N(C)c1cnn(C(=O)N2CCC3(CCN(Cc4ccc(N5CCOCC5)cc4Cl)C3)C2)c1 (stereo not shown) [Example 4]; ≥ 75%
CS(=O)(=O)Nc1cnn(C(=O)N2CC3CN(Cc4ccc(N5CCCC5)cc4C(F)(F)F)CC3C2)c1 (stereo not shown) [Example 279]; ≥ 75%
CC(=O)N(C)c1cnn(C(=O)N2CC3CN(Cc4ccc(CN5CCOCC5)cc4)CC3C2)c1 (stereo not shown) [Example 225]; 25 to 50%
CC(=O)N(C)c1cnn(C(=O)N2CCN(Cc3cc(N4CCCC4)cc(C(F)(F)F)c3)CC2)c1 [Example 190]; 50 to 75%
CC(=O)N(C)c1cnn(C(=O)N2CC3CN(Cc4ccc(C(F)(F)F)cc4)CC3C2)c1 (stereo not shown) [Example 14]; ≥ 75%
CC(=O)N(C)c1cnn(C(=O)N2CC3CN(Cc4cccc(Cl)c4Cl)CC3C2)c1 (stereo not shown) [Example 107]; ≥ 75%

**Query** # lookup: inhibition at 1 µM of CC(=O)N(C)c1cnn(C(=O)N2CC3CN(Cc4cc(C(F)(F)F)ccc4C(F)(F)F)CC3C2)c1 (stereo not shown) [Example 126]
**Result** ≥ 75%

**Query** Also, CS(=O)(=O)Nc1cnn(C(=O)N2CCC3(CC2)CN(Cc2cc(Cl)ccc2C(F)(F)F)C3)c1 [Example 277] please.
**Result** ≥ 75%

**Query** Also, CC(=O)N(C)c1cnn(C(=O)N2CCC3(CCN(Cc4ccccc4N4CCOCC4)C3)C2)c1 (stereo not shown) [Example 62] please.
**Result** 0 to 25%

**Query** Also, CC(=O)N(C)c1cnn(C(=O)N2C[C@H]3C[C@H](N(C)Cc4ccc(N5C6CCC5COC6)cc4C(F)(F)F)C[C@H]3C2)c1 [Example 155] please.
**Result** ≥ 75%

These entries and their values trace back to patent US10323038B2.
